# Species on record: Rattus norvegicus
# assay.details: Open TG-GATES - Regimen: Single
# Format: toxicity, organism-based, Sprague-Dawley
# Design: regimen Single, gender Male, age 6 weeks
# measurement.setup: in vivo, po, 100 mg/kg, 6 h, tissue Plasma, route gavage, dose level Low
assay.endpoint: Cl (meq/L)
The reply should be a number in meq/L, with the unit left off.

(Q) // lookup Cl for `CNC(=C[N+](=O)[O-])NCCSCc1ccc(CN(C)C)o1`
(A) 103.4

(Q) // lookup Cl for `CN/C(=N/CCSCc1nc[nH]c1C)NC#N`
(A) 102.4

(Q) // lookup Cl for `Cc1nnc2n1-c1ccc(Cl)cc1C(c1ccccc1Cl)=NC2`
(A) 104.4
